Cited source: ChEMBL document CHEMBL3124843

Assay: Cytotoxicity against human HuH7 cells infected with Hepatitis C virus subtype 1b
Type: cell-based, Huh-7
Task for the reader: assign each of the following compounds its reported CC50.

Notebook: Nc1nc(N)c2c(-c3ccco3)cn([C@@H]3O[C@H](CO)[C@@H](O)[C@H]3O)c2n1 , CC50 read as > 44 µM

Notebook: CN(C)c1ncnc2c1c(-c1ccoc1)cn2[C@@H]1O[C@H](CO)[C@@H](O)[C@H]1O , CC50 read as > 44 µM

Notebook: COc1ncnc2c1ccn2[C@@H]1O[C@H](CO)[C@@H](O)[C@H]1O , CC50 read as > 44 µM

Notebook: Cc1ncnc2c1ccn2[C@@H]1O[C@H](CO)[C@@H](O)[C@H]1O , CC50 read as 0.23 µM

Notebook: CSc1ncnc2c1c(-c1ccccc1)cn2[C@@H]1O[C@H](CO)[C@@H](O)[C@H]1O , CC50 read as > 44 µM

Notebook: Cc1nc(N)c2ccn([C@@H]3O[C@H](CO)[C@@H](O)[C@H]3O)c2n1 , CC50 read as > 44 µM

Notebook: Cc1ncnc2c1c(Br)cn2[C@@H]1O[C@H](CO)[C@@H](O)[C@H]1O , CC50 read as 35.6 µM

Notebook: Nc1nc2c(c(-c3cccs3)cn2[C@@H]2O[C@H](CO)[C@@H](O)[C@H]2O)c(=O)[nH]1 , CC50 read as > 44 µM

Notebook: CN(C)c1ncnc2c1c(-c1cc3ccccc3o1)cn2[C@@H]1O[C@H](CO)[C@@H](O)[C@H]1O , CC50 read as > 44 µM

====

System: Hepatitis C virus
Assay: Antiviral activity against Hepatitis C virus subtype 1b infected in human HuH7 cells
Format: functional, organism-based, Hepacivirus hominis
Settings: genotype 1b, Huh-7
Measured Property: EC50

Notebook: CN(C)c1ncnc2c1c(-c1cccs1)cn2[C@@H]1O[C@H](CO)[C@@H](O)[C@H]1O , EC50 read as 16.8 µM

Notebook: Cc1nc(N)c2c(-c3cc4ccccc4o3)cn([C@@H]3O[C@H](CO)[C@@H](O)[C@H]3O)c2n1 , EC50 read as 6.14 µM

Notebook: CSc1ncnc2c1c(-c1ccco1)cn2[C@@H]1O[C@H](CO)[C@@H](O)[C@H]1O , EC50 read as 0.07 µM

Notebook: CNc1ncnc2c1c(-c1ccoc1)cn2[C@@H]1O[C@H](CO)[C@@H](O)[C@H]1O , EC50 read as 35.9 µM

Notebook: CNc1ncnc2c1c(I)cn2[C@@H]1O[C@H](CO)[C@@H](O)[C@H]1O , EC50 read as > 44 µM

====

Task for the reader: assign each of the following molecules its reported IC50.
Tested on: K562
Assay: Cytostatic activity against human K562 cells after 72 hrs by MTT assay
Format: functional, cell-based
Conditions: K562, 72 h

Notebook: CNc1ncnc2c1c(-c1ccoc1)cn2[C@@H]1O[C@H](CO)[C@@H](O)[C@H]1O , IC50 read as > 20 µM

Notebook: CN(C)c1ncnc2c1c(-c1ccco1)cn2[C@@H]1O[C@H](CO)[C@@H](O)[C@H]1O , IC50 read as 0.15 µM

Notebook: Cc1nc(N)c2c(-c3ccccc3)cn([C@@H]3O[C@H](CO)[C@@H](O)[C@H]3O)c2n1 , IC50 read as > 20 µM

Notebook: COc1ncnc2c1c(I)cn2[C@@H]1O[C@H](CO)[C@@H](O)[C@H]1O , IC50 read as > 20 µM

Notebook: Cc1nc(N)c2c(-c3cccs3)cn([C@@H]3O[C@H](CO)[C@@H](O)[C@H]3O)c2n1 , IC50 read as > 20 µM

Notebook: Cc1ncnc2c1c(-c1ccccc1)cn2[C@@H]1O[C@H](CO)[C@@H](O)[C@H]1O , IC50 read as > 20 µM

Notebook: COc1nc(N)nc2c1c(-c1cccs1)cn2[C@@H]1O[C@H](CO)[C@@H](O)[C@H]1O , IC50 read as > 20 µM

Notebook: CNc1ncnc2c1c(-c1cccs1)cn2[C@@H]1O[C@H](CO)[C@@H](O)[C@H]1O , IC50 read as > 20 µM

Notebook: CNc1ncnc2c1c(-c1ccsc1)cn2[C@@H]1O[C@H](CO)[C@@H](O)[C@H]1O , IC50 read as > 20 µM

Notebook: Nc1nc2c(c(-c3cc4ccccc4o3)cn2[C@@H]2O[C@H](CO)[C@@H](O)[C@H]2O)c(=O)[nH]1 , IC50 read as > 20 µM

Notebook: Cc1ncnc2c1c(I)cn2[C@@H]1O[C@H](CO)[C@@H](O)[C@H]1O , IC50 read as 17.8 µM

Notebook: Nc1nc(N)c2c(-c3ccoc3)cn([C@@H]3O[C@H](CO)[C@@H](O)[C@H]3O)c2n1 , IC50 read as > 20 µM

Notebook: COc1ncnc2c1ccn2[C@@H]1O[C@H](CO)[C@@H](O)[C@H]1O , IC50 read as > 20 µM

Notebook: Cc1nc(N)c2c(-c3ccsc3)cn([C@@H]3O[C@H](CO)[C@@H](O)[C@H]3O)c2n1 , IC50 read as > 20 µM

Notebook: C#Cc1cn([C@@H]2O[C@H](CO)[C@@H](O)[C@H]2O)c2ncnc(NC)c12 , IC50 read as > 20 µM

Notebook: COc1ncnc2c1c(-c1ccsc1)cn2[C@@H]1O[C@H](CO)[C@@H](O)[C@H]1O , IC50 read as 0.09 µM

Notebook: Cc1nc(N)c2c(I)cn([C@@H]3O[C@H](CO)[C@@H](O)[C@H]3O)c2n1 , IC50 read as 5.12 µM

Notebook: Cc1ncnc2c1c(Br)cn2[C@@H]1O[C@H](CO)[C@@H](O)[C@H]1O , IC50 read as > 20 µM

Notebook: CN(C)c1ncnc2c1c(-c1ccoc1)cn2[C@@H]1O[C@H](CO)[C@@H](O)[C@H]1O , IC50 read as 1.54 µM

Notebook: Nc1nc2c(c(-c3ccco3)cn2[C@@H]2O[C@H](CO)[C@@H](O)[C@H]2O)c(=O)[nH]1 , IC50 read as > 20 µM

Notebook: COc1ncnc2c1c(-c1cc3ccccc3o1)cn2[C@@H]1O[C@H](CO)[C@@H](O)[C@H]1O , IC50 read as 20.9 µM

Notebook: Cc1nc(N)c2c(-c3ccoc3)cn([C@@H]3O[C@H](CO)[C@@H](O)[C@H]3O)c2n1 , IC50 read as > 20 µM

Notebook: C#Cc1cn([C@@H]2O[C@H](CO)[C@@H](O)[C@H]2O)c2nc(C)nc(N)c12 , IC50 read as > 20 µM

Notebook: C#Cc1cn([C@@H]2O[C@H](CO)[C@@H](O)[C@H]2O)c2ncnc(OC)c12 , IC50 read as 0.3 µM

Notebook: CNc1ncnc2c1c(I)cn2[C@@H]1O[C@H](CO)[C@@H](O)[C@H]1O , IC50 read as > 100 µM

Notebook: CNc1ncnc2c1c(-c1cc3ccccc3o1)cn2[C@@H]1O[C@H](CO)[C@@H](O)[C@H]1O , IC50 read as > 20 µM

Notebook: CNc1ncnc2c1c(-c1ccccc1)cn2[C@@H]1O[C@H](CO)[C@@H](O)[C@H]1O , IC50 read as > 20 µM

Notebook: O=c1[nH]cnc2c1c(-c1ccsc1)cn2[C@@H]1O[C@H](CO)[C@@H](O)[C@H]1O , IC50 read as > 20 µM

Notebook: CNc1ncnc2c1c(-c1ccco1)cn2[C@@H]1O[C@H](CO)[C@@H](O)[C@H]1O , IC50 read as 0.22 µM

Notebook: Cc1ncnc2c1c(-c1ccoc1)cn2[C@@H]1O[C@H](CO)[C@@H](O)[C@H]1O , IC50 read as > 20 µM

Notebook: CSc1ncnc2c1c(I)cn2[C@@H]1O[C@H](CO)[C@@H](O)[C@H]1O , IC50 read as 10.5 µM

Notebook: Nc1nc2c(c(-c3ccoc3)cn2[C@@H]2O[C@H](CO)[C@@H](O)[C@H]2O)c(=O)[nH]1 , IC50 read as 19.6 µM

Notebook: C#Cc1cn([C@@H]2O[C@H](CO)[C@@H](O)[C@H]2O)c2nc(N)nc(OC)c12 , IC50 read as > 20 µM

Notebook: O=c1[nH]cnc2c1c(-c1cc3ccccc3o1)cn2[C@@H]1O[C@H](CO)[C@@H](O)[C@H]1O , IC50 read as > 20 µM

Notebook: Nc1nc(N)c2c(-c3ccco3)cn([C@@H]3O[C@H](CO)[C@@H](O)[C@H]3O)c2n1 , IC50 read as > 20 µM

Notebook: Nc1nc(N)c2c(-c3ccsc3)cn([C@@H]3O[C@H](CO)[C@@H](O)[C@H]3O)c2n1 , IC50 read as > 20 µM

====

Test system: Hepatitis C virus
Assay: Antiviral activity against Hepatitis C virus subtype 1b infected in human HuH7 cells
Assay type: functional, organism-based, Hepacivirus hominis
Details: genotype 1b, Huh-7
Measured Property: EC50 (µM)
State just the number; it will be interpreted in µM.

Notebook: COc1nc(N)nc2c1c(-c1ccco1)cn2[C@@H]1O[C@H](CO)[C@@H](O)[C@H]1O , EC50 read as 2.44

Notebook: O=c1[nH]cnc2c1c(-c1cc3ccccc3o1)cn2[C@@H]1O[C@H](CO)[C@@H](O)[C@H]1O , EC50 read as 7.21

Notebook: CN(C)c1ncnc2c1c(-c1ccccc1)cn2[C@@H]1O[C@H](CO)[C@@H](O)[C@H]1O , EC50 read as 26.9
